- Test system: RPMI-8226 leukemia
- ASSAY REMARKS: NCI tumour cell line growth inhibition, 48 h
Below, each of the compounds is paired with its reported TGI value.

>  <COMPOUND>
N/C1=C/C(=O)NC(=O)c2c(c3ccccc3oc2=O)C1

>  <TGI>
> 100 µM

$$$$
>  <COMPOUND>
COc1cc(C)c2sc3ccccc3c(=O)c2c1NCCN(C)C

>  <TGI>
8.87 µM

$$$$
>  <COMPOUND>
COc1ccc(NCC(=O)Nn2c(-c3ccccc3)nc3ccccc3c2=O)cc1

>  <TGI>
> 100 µM

$$$$
>  <COMPOUND>
NC(=O)CC(N=Cc1nc(-c2ccccc2)oc1O)C(=O)O (centres undefined)

>  <TGI>
> 100 µM

$$$$
>  <COMPOUND>
COC(=O)[C@H](Cc1cn(C)cn1)NC(=O)[C@H](C)NC(=O)Nc1cc(C(F)(F)F)cc(C(F)(F)F)c1

>  <TGI>
> 10 µM

$$$$
>  <COMPOUND>
Cc1[nH]c2cc(F)ccc2c1-c1nc2c3cccnc3c3ncccc3c2[nH]1

>  <TGI>
2.91 µM

$$$$
>  <COMPOUND>
O=C1CCCCC12CCC/C2=N\O (centres undefined)

>  <TGI>
> 100 µM

$$$$
>  <COMPOUND>
C#CCN(Cc1ccc2nc(-c3ccccc3)c(N)nc2c1)c1cc(OC)c(OC)c(OC)c1

>  <TGI>
32.3 µM

$$$$

Alright, here's another compound for you.
Report TGI for COC1(CC[C@@H](C)COC2OC(CO)C(O)C(O)C2O)O[C@H]2C[C@H]3[C@@H]4CC=C5C[C@@H](OC6OC(CO)C(O)C(OC7OC(CO)C(O)C(O)C7O)C6OC6OC(C)C(O)C(O)C6O)CC[C@]5(C)[C@H]4CC[C@]3(C)[C@H]2[C@@H]1C (some centres undefined) please.
> 88.3 µM
